Data origin, for the record: PubChem BioAssay AID624330

# experimental_target: Rac GTPase-activating protein 1 (Homo sapiens) (UniProt Q9H0H5)
# Sequence (Q9H0H5 whole entry, looked up): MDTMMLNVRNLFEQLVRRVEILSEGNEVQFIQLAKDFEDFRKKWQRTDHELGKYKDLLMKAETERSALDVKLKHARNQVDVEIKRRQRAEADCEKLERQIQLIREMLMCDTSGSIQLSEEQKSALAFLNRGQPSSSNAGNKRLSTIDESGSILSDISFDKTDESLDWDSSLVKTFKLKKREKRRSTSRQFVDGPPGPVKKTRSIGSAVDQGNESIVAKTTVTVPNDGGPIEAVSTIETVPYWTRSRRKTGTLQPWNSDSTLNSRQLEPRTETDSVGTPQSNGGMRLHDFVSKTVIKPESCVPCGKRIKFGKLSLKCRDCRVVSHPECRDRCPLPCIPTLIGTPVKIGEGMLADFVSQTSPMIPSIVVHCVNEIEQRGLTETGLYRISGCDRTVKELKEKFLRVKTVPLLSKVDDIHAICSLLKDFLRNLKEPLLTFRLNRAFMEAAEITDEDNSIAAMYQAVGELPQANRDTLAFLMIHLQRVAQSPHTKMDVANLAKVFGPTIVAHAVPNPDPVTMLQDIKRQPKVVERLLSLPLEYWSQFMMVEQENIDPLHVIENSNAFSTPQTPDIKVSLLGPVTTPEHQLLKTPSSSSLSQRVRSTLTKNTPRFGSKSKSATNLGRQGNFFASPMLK
# protocol_notes: blockers of MgcRacGAP-driven Rac1 GTP hydrolysis – biochemical, ADP Hunter fluorescence, primary and confirmatory, confirmation (AID 624330);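 also: fluorescence reports GDP produced by GAP-driven GTP hydrolysis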
# experimental_context: MgcRacGAP-stimulated Rac1 GTP hydrolysis, at 30 µM, hits give high values, GST-tagged Rac1 F28L mutant substrate
In all, about 340,000 compounds went through this assay and about 2,100 (0.62%) were called active. The list is a sample of the results. Potency and affinity values are given separately.
Binary classification by inhibition, with 10% as an inclusive lower bound for rule met; all other cases are rule not met.

Would you please look over these solved cases?
molecule	group_label
COC(=O)c1ccc(NCc2cc(O)ccc2O)cc1O	rule met
Cc1cccc(NC(=O)c2nc[nH]c2C(=O)N[C@@H](CC(C)C)C(=O)OCc2ccccc2)c1	rule not met
CCC(=O)N1C(=O)CCN(C(C)=O)c2ccccc21	rule met
CN(C)CCN(Cc1ccco1)S(=O)(=O)c1csc(C(N)=O)c1	rule not met
O=[N+]([O-])c1ccc(C2=Nn3c(Cn4nnc5ccccc54)nnc3SC2)cc1	rule met

Now take the following molecule into account.
Q: State whether the measured inhibition reaches 10%, counting equality as reaching it, for CCOC(=O)c1ccc(NC(=S)N(CCCN2CCCC(C)C2)Cc2ccco2)cc1 (stereo unspecified)
Ans: rule not met

* * *

# experimental_target: Rac GTPase-activating protein 1 (Homo sapiens)
# protocol_notes: blockers of MgcRacGAP-driven Rac1 GTP hydrolysis – biochemical, ADP Hunter fluorescence, primary and confirmatory, confirmation (AID 624330);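 also: fluorescence reports GDP produced by GAP-driven GTP hydrolysis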
# experimental_context: MgcRacGAP-stimulated Rac1 GTP hydrolysis, at 30 µM, hits give high values, GST-tagged Rac1 F28L mutant substrate
Among all 340,000 compounds or so, about 2,100 (0.62%) were called active. These entries were drawn from the full list. Measured potencies and affinities stand elsewhere.
experimental_readout: inhibition (%)
# output: bare number, implied unit %

compound	unit_abbreviation	inhibition
O=C(NC1CCCCC1)N1CCN(c2ccc(Cl)cc2)CC1	%	6.94
CCS(=O)(=O)N1CCC(C(=O)Nc2cc(Cl)ccc2O)CC1	%	6.74
CCN(CC(=O)Nc1ccc(NC(C)=O)cc1)C(=O)c1ccc2c(c1)S(=O)(=O)N=C1CCCCCN12	%	1.15
COc1ccc(C(CC(=O)N2CCCCC2)c2c(OC)cc(OC)c3c(-c4ccccc4)cc(=O)oc23)cc1 (stereo not given)	%	5.73

With those in mind, consider the next compound.
Q: What inhibition value was documented for this compound, N#C/C(=C/c1ccc(N2CCCCCC2)o1)c1ccc(Cl)cc1 ?
Ans: 38.4

* * *

# experimental_target: Rac GTPase-activating protein 1 (Homo sapiens) (UniProt Q9H0H5)
# protocol_notes: blockers of MgcRacGAP-driven Rac1 GTP hydrolysis – biochemical, ADP Hunter fluorescence, primary and confirmatory, confirmation (AID 624330);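 also: fluorescence reports GDP produced by GAP-driven GTP hydrolysis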
# experimental_context: MgcRacGAP-stimulated Rac1 GTP hydrolysis, at 30 µM, hits give high values, GST-tagged Rac1 F28L mutant substrate
The whole screen tested about 340,000 compounds, of which about 2,100 (0.62%) were called active. These entries were drawn from the full list. Potency and affinity values are given separately.
Recorded inhibition, one value per entry.
# output: bare number, implied unit %

compound	unit_abbreviation	numeric_value
CN=C1S/C(=C\c2ccc(SC)cc2)C(=O)N1C	%	7.27
CC(=O)Nc1ccc(NC(=O)CSCc2ccccc2Cl)cc1	%	10.3
CN=C1S/C(=C\c2ccc(Cl)cc2)C(=O)N1C	%	3.04
COc1ccc(CCNC(=O)c2cc(C3CC3)nc3c2cnn3C(C)C)cc1	%	1.51

Q: What inhibition value was documented for this compound, COc1cc(CNc2ncc(-c3ccc(Br)cc3)n2C)cc(OC)c1OC ?
Ans: 29.8

Q: What inhibition value was documented for this compound, Cc1ccc(N(CC2CO2)S(=O)(=O)c2ccc([N+](=O)[O-])cc2)cc1 (stereo unspecified) ?
Ans: 4.81

Q: What inhibition value was documented for this compound, Cn1c(-c2ccc(F)cc2)cnc1NCc1ccc(F)cc1 ?
Ans: 16.6

Q: What inhibition value was documented for this compound, CSc1cccc(NC(=O)COC(=O)C2CCN(S(=O)(=O)c3ccccc3)CC2)c1 ?
Ans: 3.95

Q: What inhibition value was documented for this compound, NC(=O)c1ccc(NC(=O)COC(=O)c2cccc(Oc3ccccc3)c2)cc1 ?
Ans: -3.55

Q: What inhibition value was documented for this compound, Cn1c(-c2ccc(Br)cc2)cnc1NCc1cccnc1 ?
Ans: 18.7

Q: What inhibition value was documented for this compound, CCOC(=O)N1CCN(CC(O)COc2c(OC)cccc2OC)CC1 (stereo unspecified) ?
Ans: 9.23

* * *

# experimental_target: Rac GTPase-activating protein 1 (Homo sapiens) (UniProt Q9H0H5)
# protocol_notes: blockers of MgcRacGAP-driven Rac1 GTP hydrolysis – biochemical, ADP Hunter fluorescence, primary and confirmatory, confirmation (AID 624330);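 also: fluorescence reports GDP produced by GAP-driven GTP hydrolysis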
# experimental_context: MgcRacGAP-stimulated Rac1 GTP hydrolysis, at 30 µM, hits give high values, GST-tagged Rac1 F28L mutant substrate
The whole screen tested about 340,000 compounds, of which about 2,100 (0.62%) were called active. Only a sample is shown. Results with a measured potency or affinity are listed apart.
Binary classification by inhibition, with 6% as an inclusive lower bound for Y; all other cases are N.

molecule	group_label
C[C@H](CO)N1C[C@H](C)[C@@H](CN(C)S(=O)(=O)c2ccc(F)cc2)Oc2ccc(NC(=O)NC3CCCCC3)cc2C1=O	Y
Cc1ccc(S(=O)(=O)Nc2nc(C)cc(NN)n2)cc1	N

Q: State whether the measured inhibition reaches 6%, counting equality as reaching it, for COCCn1c(SCC(=O)Nc2ccc3c(c2)OCCO3)nc2c(c1=O)SC(C)C2 (stereo not given)
Ans: Y

Q: State whether the measured inhibition reaches 6%, counting equality as reaching it, for COc1cc2c(cc1NC(=O)CCC(=O)O)oc1ccccc12
Ans: Y

* * *

# experimental_target: Rac GTPase-activating protein 1 (Homo sapiens) (UniProt Q9H0H5)
# protocol_notes: blockers of MgcRacGAP-driven Rac1 GTP hydrolysis – biochemical, ADP Hunter fluorescence, primary and confirmatory, confirmation (AID 624330);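 also: fluorescence reports GDP produced by GAP-driven GTP hydrolysis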
# experimental_context: MgcRacGAP-stimulated Rac1 GTP hydrolysis, at 30 µM, hits give high values, GST-tagged Rac1 F28L mutant substrate
The whole screen tested about 340,000 compounds, of which about 2,100 (0.62%) were called active. A selection follows. Measured potencies and affinities stand elsewhere.
experimental_readout: inhibition (%)
# output: bare number, implied unit %

Consider the following illustrative entries.
molecule	inhibition (%)
Cc1ccc2c(CC(=O)N3CCN(S(=O)(=O)c4ccccc4)CC3)coc2c1	5.1
Cc1ccc(S(=O)(=O)NCC(c2ccco2)N2CCc3ccccc3C2)cc1 (stereo unspecified)	2.71
CC1NC(C)(C)Cc2c1ccc1ccccc21 (stereo unspecified)	2.36
Brc1ccc(-c2ncc3ccccn23)cc1	14.6

Q: What inhibition value was documented for this molecule, N#Cc1ccccc1S(=O)(=O)N1CCN(C(=O)CCc2ccccc2)CC1 ?
Ans: 6.33

Q: What inhibition value was documented for this molecule, O=c1ccn([C@H]2C[C@H](O)[C@@H](CO)O2)c(=O)[nH]1 ?
Ans: 1.01

Q: What inhibition value was documented for this molecule, COc1ccc(CCN2C(=O)c3ccccc3NC2c2cc(Cl)c(O)c(OC)c2)cc1 (stereo unspecified) ?
Ans: 7.25

Q: What inhibition value was documented for this molecule, CC1CC2(CCCCC2)Nc2ccc3ccccc3c21 (stereo unspecified) ?
Ans: 12.5

Q: What inhibition value was documented for this molecule, COc1ccc2c(CC(=O)N3CCN(S(=O)(=O)c4ccc(F)cc4)CC3)coc2c1 ?
Ans: 1.15

Q: What inhibition value was documented for this molecule, Cc1ccc2sc(NNC(=O)c3cc(=O)c4ccccc4o3)nc2c1C ?
Ans: 24.2

Q: What inhibition value was documented for this molecule, CCOc1ccc(-c2nnc(-c3ccccc3)n2-c2ccccc2)cc1 ?
Ans: 1.23

* * *

# experimental_target: Rac GTPase-activating protein 1 (Homo sapiens)
# protocol_notes: blockers of MgcRacGAP-driven Rac1 GTP hydrolysis – biochemical, ADP Hunter fluorescence, primary and confirmatory, confirmation (AID 624330);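 also: fluorescence reports GDP produced by GAP-driven GTP hydrolysis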
# experimental_context: MgcRacGAP-stimulated Rac1 GTP hydrolysis, at 30 µM, hits give high values, GST-tagged Rac1 F28L mutant substrate
The whole screen tested about 340,000 compounds, of which about 2,100 (0.62%) were called active. The list is a sample of the results. Measured potencies and affinities stand elsewhere.
experimental_readout: inhibition (%)
# output: bare number, implied unit %

Q: What inhibition value was documented for this molecule, CCOC(=O)Cc1csc(NC(=O)c2csc(C)c2)n1 ?
Ans: 9.83

Q: What inhibition value was documented for this molecule, C=CCn1c(C(C)C)nc2ccccc21 ?
Ans: 4.59

Q: What inhibition value was documented for this molecule, CCN(CC)c1ccc(C(=O)NNC(=O)CCNC(=O)c2ccccc2)cc1 ?
Ans: 7.48

Q: What inhibition value was documented for this molecule, CCOc1cc(/C=N/NC(=O)C(=O)N/N=C/c2ccc(O)c(OCC)c2)ccc1O ?
Ans: 10.8

Q: What inhibition value was documented for this molecule, C=CCOc1cccc(/C=N/NC(=O)C(OC)c2ccccc2)c1 (stereo unspecified) ?
Ans: 7.19
